Biological target: D(1B) dopamine receptor (Homo sapiens, UniProt P21918)
Sequence (P21918 whole entry): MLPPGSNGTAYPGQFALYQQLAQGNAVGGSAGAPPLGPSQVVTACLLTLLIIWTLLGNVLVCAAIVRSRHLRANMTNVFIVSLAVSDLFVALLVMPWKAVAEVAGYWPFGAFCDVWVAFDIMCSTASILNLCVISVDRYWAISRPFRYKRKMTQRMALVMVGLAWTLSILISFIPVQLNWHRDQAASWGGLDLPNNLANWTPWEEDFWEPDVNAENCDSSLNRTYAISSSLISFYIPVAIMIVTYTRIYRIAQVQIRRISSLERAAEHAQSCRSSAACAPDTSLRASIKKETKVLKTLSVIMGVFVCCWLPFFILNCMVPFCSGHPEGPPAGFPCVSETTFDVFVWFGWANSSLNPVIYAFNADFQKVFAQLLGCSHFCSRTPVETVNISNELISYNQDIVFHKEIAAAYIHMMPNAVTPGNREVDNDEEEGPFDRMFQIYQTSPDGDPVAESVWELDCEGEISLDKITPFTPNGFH
pKi: −log10 of the molar value.
readout kind: pKi

Here O=C(CCCN1C2C3C4CC5C6C4C2C6C1(O)C53)c1ccc(F)cc1 (stereo unspecified) was tested on D(1B) dopamine receptor (Homo sapiens, UniProt P21918), and its pKi came to < 5.00

* * *

Molecular target: Sigma non-opioid intracellular receptor 1 (Rattus norvegicus, UniProt Q9R0C9)
Sequence (Q9R0C9 whole entry): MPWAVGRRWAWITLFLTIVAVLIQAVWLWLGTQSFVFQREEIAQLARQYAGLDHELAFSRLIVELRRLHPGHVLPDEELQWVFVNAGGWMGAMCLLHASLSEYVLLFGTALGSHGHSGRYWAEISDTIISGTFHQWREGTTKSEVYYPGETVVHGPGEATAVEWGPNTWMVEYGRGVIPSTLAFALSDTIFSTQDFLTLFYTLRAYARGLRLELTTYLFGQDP
Assay: Displacement of [3H](+)-pentazocine from sigma 1 receptor in rat brain homogenate
readout kind: Ki
Returns: string containing the number followed by the unit.

Take a look at these entries with their results.
{"columns": ["molecule", "readout kind", "result"],
 "data": [
  ["COc1ccc(CCN2C3C4C5CC6C7C5C3C7C2(O)C64)cc1OCCc1ccccc1 (stereo not drawn)", "Ki", "20 nM"],
  ["COc1ccc(C)cc1C(=O)NCCN1C2C3C4CC5C6C4C2C6C1(O)C53 (stereo not drawn)", "Ki", "7.6 nM"]
]}

Pending molecule:
Here O=C(CCCN1C2C3C4CC5C6C4C2C6C1(O)C53)c1ccc(F)cc1 (stereo not drawn) was tested on Sigma non-opioid intracellular receptor 1 (Rattus norvegicus, UniProt Q9R0C9), and its Ki came to 27 nM

* * *

Test: Displacement of [3H]DTG from sigma 2 receptor in rat brain homogenate
Assay type: tissue-based
readout kind: pKi
Scale explanation: pKi corresponds to minus log10 of a concentration expressed in moles per litre.

{"columns": ["compound", "readout kind", "numeric value"],
 "data": [
  ["COc1ccc(CCN2C3C4C5CC6C7C5C3C7C2(O)C64)cc1OCCc1ccccc1 (stereo unspecified)", "pKi", 7.03]
]}

Sure, the documented pKi for O=C(CCCN1CCC(O)(c2ccc(Cl)cc2)CC1)c1ccc(F)cc1 is 8.10

Sure, the documented pKi for O=C(CCCN1C2C3C4CC5C6C4C2C6C1(O)C53)c1ccc(F)cc1 (stereo unspecified) is 7.26

Sure, the documented pKi for COc1ccc(C)cc1C(=O)NCCN1C2C3C4CC5C6C4C2C6C1(O)C53 (stereo unspecified) is 6.65

Sure, the documented pKi for COc1cc2c(cc1OC)CN(CCNC(=O)c1cc(C)ccc1OC)CC2 is 7.88

Sure, the documented pKi for CCCN(CCC)CCc1ccc(OC)c(OCCc2ccccc2)c1 is 6.67

* * *

Target: D(3) dopamine receptor (Homo sapiens)
Sequence (P35462 whole entry): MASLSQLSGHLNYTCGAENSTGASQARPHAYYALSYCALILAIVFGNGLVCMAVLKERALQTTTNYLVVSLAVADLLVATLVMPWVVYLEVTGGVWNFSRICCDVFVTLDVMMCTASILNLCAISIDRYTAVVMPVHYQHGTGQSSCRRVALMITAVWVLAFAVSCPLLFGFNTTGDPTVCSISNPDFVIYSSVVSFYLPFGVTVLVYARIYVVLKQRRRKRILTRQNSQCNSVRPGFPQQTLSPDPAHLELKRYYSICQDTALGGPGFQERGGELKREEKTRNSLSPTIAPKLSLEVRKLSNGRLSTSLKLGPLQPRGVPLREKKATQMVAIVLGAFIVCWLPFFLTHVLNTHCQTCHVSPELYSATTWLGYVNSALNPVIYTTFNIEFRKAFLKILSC
readout kind: Ki (µM)
Reply numerically in µM, unit not repeated.

Here O=C(CCCN1C2C3C4CC5C6C4C2C6C1(O)C53)c1ccc(F)cc1 (configuration not stated) was tested on D(3) dopamine receptor (Homo sapiens), and its Ki came to 1.96

* * *

Molecular target: D(1A) dopamine receptor (Homo sapiens, UniProt P21728)
Sequence (P21728 whole entry): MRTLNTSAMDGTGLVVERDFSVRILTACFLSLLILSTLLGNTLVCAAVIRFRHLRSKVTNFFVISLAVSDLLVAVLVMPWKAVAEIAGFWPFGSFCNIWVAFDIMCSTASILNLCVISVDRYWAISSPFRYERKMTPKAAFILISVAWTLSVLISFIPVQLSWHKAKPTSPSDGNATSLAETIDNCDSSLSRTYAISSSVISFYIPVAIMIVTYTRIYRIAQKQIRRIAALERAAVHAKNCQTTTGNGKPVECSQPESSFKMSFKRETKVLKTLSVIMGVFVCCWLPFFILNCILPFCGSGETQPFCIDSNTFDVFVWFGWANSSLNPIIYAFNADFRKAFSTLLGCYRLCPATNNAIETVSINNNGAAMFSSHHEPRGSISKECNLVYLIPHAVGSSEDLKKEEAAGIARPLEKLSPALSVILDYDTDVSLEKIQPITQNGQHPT
Test: Displacement of [3H][…] from human D1 receptor expressed in HEK cells
readout kind: IC50

Here CCCN(CCC)CCc1ccc(OC)c(OCCc2ccccc2)c1 was tested on D(1A) dopamine receptor (Homo sapiens, UniProt P21728), and its IC50 came to > 10 µM

* * *

Molecular target: D(1A) dopamine receptor (Homo sapiens)
Experiment: Displacement of [3H][…] from human D1 receptor expressed in HEK cells
readout kind: pKi
Scale explanation: pKi corresponds to minus log10 of a concentration expressed in moles per litre.

Sure, the documented pKi for O=C(CCCN1C2C3C4CC5C6C4C2C6C1(O)C53)c1ccc(F)cc1 (configuration not stated) is 6.68

The reported numbers originate from ChEMBL document CHEMBL1777734.
